assayNotes: Octanol-water partition coefficient, log D of the compound
Format: physicochemical
// reported logD per item
resultType: logD

[
  {
    "compound": "CCC(=O)O[C@H]1CC[C@@H]2C(=C[C@H](OC)[C@@H]3[C@@]2(C)CC[C@]2(C)[C@@H]([C@H](C)C[C@H](C=C(C)C)OC(=O)CC)CC[C@@]32C)C1(C)C [KARAVOATE D]",
    "recordedNumber": 8.9
  },
  {
    "compound": "CO[C@H]1C=C2[C@@H](CC[C@H](OC(C)=O)C2(C)C)[C@]2(C)CC[C@]3(C)[C@@H]([C@H](C)C[C@H](C=C(C)C)OC(C)=O)CC[C@@]3(C)[C@H]12 [KARAVOATE B]",
    "recordedNumber": 8.6
  },
  {
    "compound": "C[C@H](C/C=C/C(C)(C)O)[C@H]1CC[C@@]2(C)[C@@H]3[C@@H](O)C=C4[C@@H](CC[C@H](O)[C@]4(C)CO)[C@]3(C)CC[C@]12C [BALSAMINAGENIN A]",
    "recordedNumber": 5.2
  },
  {
    "compound": "COC(C)(C)/C=C/C[C@@H](C)[C@H]1CC[C@@]2(C)[C@@H]3[C@@H](O[C@H]4O[C@@H](CO)[C@H](O)[C@H](O)[C@@H]4O)C=C4[C@@H](CC[C@H](O)C4(C)C)[C@]3(C)CC[C@]12C [BALSAMINOSIDE A]",
    "recordedNumber": 5.3
  }
]

----------
targetEntity: ATP-dependent translocase ABCB1 (Homo sapiens)
Sequence (P08183 whole entry): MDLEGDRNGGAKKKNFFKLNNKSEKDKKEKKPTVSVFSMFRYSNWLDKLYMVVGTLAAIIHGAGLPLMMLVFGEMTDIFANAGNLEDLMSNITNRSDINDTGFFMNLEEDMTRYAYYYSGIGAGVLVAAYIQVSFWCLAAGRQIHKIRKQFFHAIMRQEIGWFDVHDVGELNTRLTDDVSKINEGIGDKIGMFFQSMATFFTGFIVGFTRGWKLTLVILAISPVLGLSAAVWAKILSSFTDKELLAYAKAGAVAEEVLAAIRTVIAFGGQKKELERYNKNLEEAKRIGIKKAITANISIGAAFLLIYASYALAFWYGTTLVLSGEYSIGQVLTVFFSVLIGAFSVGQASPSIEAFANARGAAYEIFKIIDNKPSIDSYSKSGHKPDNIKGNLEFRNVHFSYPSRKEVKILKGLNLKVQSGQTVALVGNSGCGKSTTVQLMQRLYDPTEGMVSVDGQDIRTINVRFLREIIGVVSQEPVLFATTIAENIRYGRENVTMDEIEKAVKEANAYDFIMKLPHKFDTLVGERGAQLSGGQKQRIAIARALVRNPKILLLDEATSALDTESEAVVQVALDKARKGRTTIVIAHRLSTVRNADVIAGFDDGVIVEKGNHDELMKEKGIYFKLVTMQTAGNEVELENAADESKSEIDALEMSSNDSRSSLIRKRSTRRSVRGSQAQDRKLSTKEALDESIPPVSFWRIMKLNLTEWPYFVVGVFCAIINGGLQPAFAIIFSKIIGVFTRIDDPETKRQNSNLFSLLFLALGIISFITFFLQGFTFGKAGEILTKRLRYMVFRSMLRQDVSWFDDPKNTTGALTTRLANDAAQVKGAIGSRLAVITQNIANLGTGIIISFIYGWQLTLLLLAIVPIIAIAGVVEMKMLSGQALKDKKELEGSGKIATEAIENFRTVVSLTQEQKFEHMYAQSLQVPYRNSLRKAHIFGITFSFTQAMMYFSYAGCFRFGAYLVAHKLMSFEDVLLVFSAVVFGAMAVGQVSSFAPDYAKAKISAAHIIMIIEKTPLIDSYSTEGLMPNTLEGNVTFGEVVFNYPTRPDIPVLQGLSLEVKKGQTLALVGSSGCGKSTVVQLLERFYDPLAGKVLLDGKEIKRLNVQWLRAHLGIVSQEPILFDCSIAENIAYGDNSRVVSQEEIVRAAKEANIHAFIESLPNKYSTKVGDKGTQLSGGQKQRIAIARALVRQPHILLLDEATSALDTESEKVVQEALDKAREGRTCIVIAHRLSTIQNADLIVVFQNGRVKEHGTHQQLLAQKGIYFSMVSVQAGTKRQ
assayNotes: Reversal of human MDR1-mediated multidrug resistance in mouse L5178Y cells expressing MDR1 assessed as fluorescence activity ratio at 2 uM after 10 mins by rhodamine-123 exclusion test
Assay type: cell-based
Decide using Activity: a value greater than or equal to 6 is yes (1), a smaller one is no (0).

[
  {
    "compound": "C[C@H](C/C=C/C(C)(C)O)[C@H]1CC[C@@]2(C)[C@@H]3[C@@H](O)C=C4[C@@H](CC[C@H](O)[C@]4(C)CO)[C@]3(C)CC[C@]12C",
    "targetEntity": "ATP-dependent translocase ABCB1 (Homo sapiens)",
    "category": "no (0)"
  },
  {
    "compound": "CO[C@H]1C=C2[C@@H](CC[C@H](O)C2(C)C)[C@]2(C)CC[C@]3(C)[C@@H]([C@H](C)C[C@@H](O)C=C(C)C)CC[C@@]3(C)[C@H]12",
    "targetEntity": "ATP-dependent translocase ABCB1 (Homo sapiens)",
    "category": "yes (1)"
  },
  {
    "compound": "CO[C@H]1C=C2[C@@H](CC[C@H](OC(C)=O)C2(C)C)[C@]2(C)CC[C@]3(C)[C@@H]([C@H](C)C[C@H](C=C(C)C)OC(C)=O)CC[C@@]3(C)[C@H]12 [KARAVOATE B]",
    "targetEntity": "ATP-dependent translocase ABCB1 (Homo sapiens)",
    "category": "no (0)"
  },
  {
    "compound": "CCC(=O)O[C@@H](C=C(C)C)C[C@@H](C)[C@H]1CC[C@@]2(C)[C@@H]3[C@@H](OC)C=C4[C@@H](CC[C@H](O)C4(C)C)[C@]3(C)CC[C@]12C [KARAVOATE C]",
    "targetEntity": "ATP-dependent translocase ABCB1 (Homo sapiens)",
    "category": "no (0)"
  }
]
